# TEST PROTOCOL: soluble fraction after stress (log2 fold change); higher = more stays soluble; pooled small domains, quantitative proteomics
# EXPERIMENTAL CONTEXT: stress: pH 4
Use soluble fraction (log2) to assign classes; range list: low interval = under -0.4, middle interval = from -0.4 up to -0.09, high interval = -0.09 and over

Look over these answered cases.
HMVINVKEILERIKLVKGFHTQIEIARFLGVSKGTISNWLARNSVDFPLVISKLDGVDLNWLFTGIGMPQ ... low interval
HMVDKDFKPLYASLERLDSTSIIEILDSNRIDYRIDQRSGALLVDADQIHQARLSLASAGMPA ... low interval
HMTGGLLVHVAGAVGAPGVVSLPEGARVVDAIEAAGGAREDADTDQLNLARPVVDGEQVRVPVVGEVLE ... high interval
HMNRNEFMERLEYLLSDIPQEEKADAIAYYRDYLEEAGDDAGKAIQDFGSPERIAAMIRSELAG ... low interval
HMSDIISEIESQVMFKLATYEITNATEKMIEALINSEINDRRTLGFPIPNEQGRIFLVRSIQNKLAV ... low interval

Class label required: HMHPSNQELTKVLAQGSELVLAQKYIEASQIFTRVIEIDQTWAEAWNKRATVFYLLQNYEASQKDIDEV
middle interval

Then this sequence: HMRRVGTALNRSHKVSYGESIQSIAARYNVNPTMLREYNRLKPEATITPGQILRIPPATIAS
middle interval

Then this sequence: HMDVNKDLLGETLEKAKSYKADDWRKASYEALQKAIVEAEAVYKDEEADQVAVDRKVAALNKAINNLEAKG
high interval

Then this sequence: HMTSEVLTNATIVKMVKAKLSDDIIIDEINNARVNFDVSPEGIKSLTAQNVTEPVIETMKKAVAAQESI
high interval

---

# TEST PROTOCOL: soluble fraction after stress (log2 fold change); higher = more stays soluble; pooled small domains, quantitative proteomics
# EXPERIMENTAL CONTEXT: stress: pH 4
Each entry below lists one item and its recorded soluble fraction (log2) value.
Reply with just the number.

HMDAEVEHLFRIIAELKEKNVAIIYISHKMDEIFRISDDITVYRDGEYIATDRAENLNVDKVIQLMVGREV ... -0.538
HMVSRAFEEETVKRAESGNQEAALFALELAIREIEHSYEKSKIIDYFVSKVRLFLDNGVSLERALGIH ... -0.0689
HMDVSEITTIKWIIKETKLGINEKILIYVNSKNFTVETLMEGFEIMSKYLVENVSSDKIVYIKN ... 0.22

What does the record list as soluble fraction (log2) for HMYSYNKEEVGKRIKSIRQQKGLTQESFGELFGASKGNVATWEKGISLPNASRLREIADLVSITVEELLYG ?
0.00486

Then this sequence: HMNPSIALHDWLQSSEFKGSINLFAAALGMNPRTVEAWVYGRSTPSRRFWAKLYQITNLSRFRL
0.22

Then this sequence: HMSGTYIVTVQANTLDIYKSMTSNDTIGKANKGDVFQILEDMGGGYAKVSYNDVEGYISIKDGDTSIDEM
-1.29

Then this sequence: HMDLKENQHILQISNKGVQMGNVLKDLIIQTLNITNGNQIKAAKLLAISRAKLRYRIEQLGINISGKNI
0.0187

---

Each entry below lists one item and its recorded soluble fraction (log2) value.
# TEST PROTOCOL: soluble fraction after stress (log2 fold change); higher = more stays soluble; pooled small domains, quantitative proteomics
# EXPERIMENTAL CONTEXT: stress: pH 4

Here's what some known entries look like.
HMAVKYTKDDFLYTEKPYEAIYDYKNDPFMHNLKIEQMAQQAAEVGVKTFKGLYKNYVKMREMQRGANV ... 0.0966
HMNDTLQEYFEALERLKSNNPINVPKNTKINNDSVALEAGRKRGSIKKSREIFAELIEAINNAS ... -0.186
HMSSIHQDAKQQLHEYIRTYIQPLMRAGKQVTVWDIIGHVTIRKPKLVQKIGTQQLINMVQDLLE ... -0.302
HMAQSLAQKINNYILTNRSSIANVAKSIGYSRTTVSRYLAGKYDSDPTDLENKLAEFLAHETGE ... 0.017
HMNTTTTKVVSVSSLNMRSGPSTSYNIIEVLTKDTQVEVISVEDGWAKIKYNSKTGYVSNQYLSDKK ... -0.0101

Consider the additional sequence presented here.
What does the record list as soluble fraction (log2) for HMGIEIKLLMSFMTDSGRKVSLFVTDPREDVTETEIKQVMDLIIEKNIFAPNGEDIVSAKEAKIVQT ?
-1.2

---

# TEST PROTOCOL: soluble fraction after stress (log2 fold change); higher = more stays soluble; pooled small domains, quantitative proteomics
# EXPERIMENTAL CONTEXT: stress: pH 4
MEASURED METRIC: soluble fraction (log2)
Reply with just the number.

HMSRKERERSQHRRDILAAGEKIFAQKGYFNATIEEIAREAEFSVGTIYNFFSNKETLYQEIIRSI ... -0.43

What does the record list as soluble fraction (log2) for HMVWNVEQIKRAVDQLPDGYRVVFTLYLFEGYDHREIADILGISEGGSKSQFNRAKSKLKEILTAMS ?
-1.2

Then this sequence: HMNNNIFVYPNPSINYINIDSDEEIWKLEIIQMSGEKINILPFSKRIDISFLSKGLYILNFNNYYIKFIK
-0.937

Then this sequence: HMRLPQEVWEKIRAAYEAHGLSFSELAEMYGVNKSNISRRAKAEGWNQAETQRLITATVENE
0.211

Then this sequence: HMSTPLVATLRKRIIDGHYPPGERLAEIPVAEAFGVSRTPVRLAFRTLEQEGLLEKAGKRGYAVRA
0.0231

Then this sequence: HMNTGFPIILETSDAANLTVGAPIMYRGVEVGKIRNMELNSLGDRVLIHILIGHKYQHLVRQNSEFWFSS
-2.1

---

# TEST PROTOCOL: soluble fraction after stress (log2 fold change); higher = more stays soluble; pooled small domains, quantitative proteomics
# EXPERIMENTAL CONTEXT: stress: pH 4
MEASURED METRIC: soluble fraction (log2)
Reply with just the number.

Here's what some known entries look like.
HMEGDAFAFTGDIQKDLLSITAVHPMRREAVDALIAKAGASWAIVEKLLAHGELTEAKHDGHLFYLRKF ... -0.354
HMIFRPALITDLDAVERHYTELLTREAETGRSSTNWSLGVYPTRQTATAAQAAGTLWVLEREGQVVASVI ... -0.552
HMRILDFPALKTEFDQLTKDLMAKYPEDGADRVRAIIETVLGPGKKVGALQPHQAELLAEVNTSLKANL ... -0.0969
HMDSYSILGIEKESSMEDIEKAYIDKISKIKKEVKNEKNAAAFEAVLTKAYNDILSQKENISEEQELAE ... 0.22
HMGGFSVTAEAFDGTPEVGKTVGFTAGSTKIKVEDTKGDATFGTILEKETVGFGEGKYTYFYIGL ... -0.276

What does the record list as soluble fraction (log2) for HMYPEDMMSLMRRALRLINHLESNRKDRHNSRQLELTESKIRRLARYYKGRGLIETEWAYKRDQLRLLV ?
-0.184

Then this sequence: HMVSKQVTVNGIQYYQYTVQKSEGFYAISTKFGVTQDDIILANPSTKEGLRVGQEILIPIKT
-0.0976

Then this sequence: HMKMPNGYGSVYKLSGNRRKPWAARVTDGWVNDTKTKKSKQKYKFIGFYETRKEALLALADYNANP
0.22

Then this sequence: HMLTEEVEISLMDMTKPTQPATIKTTATIQKGATTVMPKQIKMPEGYEFYGNYKMDQPFELTMTFVVKKI
-0.0427

---

# TEST PROTOCOL: soluble fraction after stress (log2 fold change); higher = more stays soluble; pooled small domains, quantitative proteomics
# EXPERIMENTAL CONTEXT: stress: pH 4
MEASURED METRIC: soluble fraction (log2)

Here's what some known entries look like.
HMFTSVDVAPDLRTAKVFYSVLGRKKSDKEINIAINQKRKAFKKFMGPELHLKNIPDLHFYYD ... 0.115
HMNADAPWSPFSPGFTGPMNRPVIGLVTKADLANPQRISLVESWLVQAGAQKVFVTSALENTGVDEMFIFL ... -0.288
HMGKEDLTAAIKKMTLNDKLDIHKIVANFQTNDSEEVITAVKWLMENNYLLKIKNNYTWNTKEK ... 0.22
HMKFTPPTLEQIKNEMLLKTDEYNADIQSDRFFTYYDSNGWMVGKNKMKKFLVSLVAVFAATSA ... -0.374
HMNVYAGTMINVVGLQVEDAASRLRGLFYSVKIVEEESQEPDGKVLRQNIAEGTKDLEAWTLVELTVSKYV ... -0.448

What does the record list as soluble fraction (log2) for HMQLFKFKNAMMELAKNKNITLDTAEKAIGLEAGFTELVARGVKELALSDVIKISKYFNTTMDSVLD ?
-0.995

Then this sequence: HMTYFIADLIGLQVYTDSGELLGKVDDIYNSGSADIYVVKDELGKQILLPGIKDVIKQIDVDNEKIIVHLI
-1.62

These measurements were taken from the domain aggregation screens of Martell et al. (2025).
